assaySystem: full length active recombinant SYK enzyme (Homo sapiens)
Construct: full length active recombinant SYK enzyme (Millipore, CA); purchased Millipore, CA
procedureSummary: Inhibition of Syk tyrosine phosphorylation activity (LANCE TR-FRET kinase assay)
Assay type: biochemical
experimentalSetup: 1 nM active SYK enzyme, 550 nM SYK-substrate, 100 μM ATP, 1 hour at room temperature
pIC50: −log10 of the molar value.
Catalogue of pIC50 readings, one per entry.

// known answers, use as guide
1) NC(=O)c1ncc(N[C@@H]2CCCC[C@@H]2N)cc1Nc1ccc2cccnc2c1: 7.00 to 8.00
2) NC(=O)c1ncc(N[C@@H]2CCCC[C@@H]2N)cc1Nc1ccc2cnccc2c1: 7.00 to 8.00
3) NC(=O)c1ncc(N[C@@H]2CCCC[C@@H]2N)cc1Nc1cnsc1: 6.00 to 7.00
4) NC(=O)c1ncc(N[C@@H]2CCCC[C@@H]2N)cc1Nc1cnc2ccccc2c1: 6.00 to 7.00
5) NC(=O)c1ncc(N[C@@H]2CCCC(F)(F)[C@@H]2N)cc1Nc1cc(-c2ccccc2)no1: 6.00 to 7.00

Query :: Quickly give me recorded pIC50 for Cc1cc(Nc2cc(N[C@@H]3CCOC[C@@H]3N)cnc2C(N)=O)sn1
Result :: 8.00 to 9.00

Query :: Quickly give me recorded pIC50 for Cc1cc(Nc2cc(N[C@H](C)C(N)=O)cnc2C(N)=O)sn1
Result :: 7.00 to 8.00

Query :: Quickly give me recorded pIC50 for CC(C)(C)[C@@H](Nc1cnc(C(N)=O)c(Nc2cc(C3CC3)ns2)c1)C(N)=O
Result :: 7.00 to 8.00
